Multi-source literature compilation: pIC50 on Gonadotropin-releasing hormone receptor (Homo sapiens).
Sequence (P30968 whole entry): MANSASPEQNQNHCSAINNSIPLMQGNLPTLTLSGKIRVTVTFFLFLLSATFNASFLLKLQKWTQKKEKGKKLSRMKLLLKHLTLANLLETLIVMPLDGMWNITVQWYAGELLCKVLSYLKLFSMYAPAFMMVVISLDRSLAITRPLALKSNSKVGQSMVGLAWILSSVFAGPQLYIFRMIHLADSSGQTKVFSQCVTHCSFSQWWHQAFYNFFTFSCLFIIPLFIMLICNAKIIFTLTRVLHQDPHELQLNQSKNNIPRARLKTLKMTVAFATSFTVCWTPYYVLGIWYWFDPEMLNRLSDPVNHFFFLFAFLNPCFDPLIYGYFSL
pIC50 here is simply -log10 of the concentration when that concentration is written in mol/L.

Prompt: // lookup pIC50 | system=Gonadotropin-releasing hormone receptor (Homo sapiens) | key= CCCCn1c(SCc2cc([N+](=O)[O-])ccc2OC)nc2cc(NC(=O)NC(C)(C)C)ccc21
Response: 7.64

Prompt: // lookup pIC50 | system=Gonadotropin-releasing hormone receptor (Homo sapiens) | key= COc1ccc([N+](=O)[O-])cc1CSc1nc2cc(NC(=O)NC(C)(C)C)ccc2n1Cc1cccnc1
Response: 7.48

Prompt: // lookup pIC50 | system=Gonadotropin-releasing hormone receptor (Homo sapiens) | key= CCCn1c(SCc2cc([N+](=O)[O-])ccc2OC)nc2cc(NC(=O)NC(C)(C)C)cc(C(=O)N(C)C)c21
Response: 6.57

Prompt: // lookup pIC50 | system=Gonadotropin-releasing hormone receptor (Homo sapiens) | key= CC(C)(C)CC(=O)NCCc1nc2cc(S(=O)(=O)NCc3ccc(F)cc3)ccc2n1Cc1ccccc1
Response: 5.59

Prompt: // lookup pIC50 | system=Gonadotropin-releasing hormone receptor (Homo sapiens) | key= O=S(=O)(NCc1ccc(F)cc1)c1ccc2c(c1)nc(SCc1ccncc1)n2Cc1ccccc1
Response: 6.49

Prompt: // lookup pIC50 | system=Gonadotropin-releasing hormone receptor (Homo sapiens) | key= CCOc1nc2cc(S(=O)(=O)NCc3ccc(F)cc3)ccc2n1Cc1ccsc1
Response: 5.85

Prompt: // lookup pIC50 | system=Gonadotropin-releasing hormone receptor (Homo sapiens) | key= Cc1cc(C)cc(-c2[nH]c3ccc(C(C)(C)C(=O)N(CC(C)C)CC(C)C)cc3c2CCNCCCCc2cccnc2)c1
Response: 8.77

Prompt: // lookup pIC50 | system=Gonadotropin-releasing hormone receptor (Homo sapiens) | key= CC(C)(C)NC(=O)NCCc1nc2cc(S(=O)(=O)NCc3ccc(F)c(F)c3)ccc2n1Cc1ccccc1
Response: 6.77

Prompt: // lookup pIC50 | system=Gonadotropin-releasing hormone receptor (Homo sapiens) | key= CC(C)(C)NC(=O)NCCc1nc2cc(S(=O)(=O)NCc3ccccc3F)ccc2n1Cc1ccccc1
Response: 6.12

Prompt: // lookup pIC50 | system=Gonadotropin-releasing hormone receptor (Homo sapiens) | key= Cc1cc(C)cc(-c2[nH]c3ccccc3c2CCNCCCCc2ccc(NS(C)(=O)=O)cc2)c1
Response: 8.15

Prompt: // lookup pIC50 | system=Gonadotropin-releasing hormone receptor (Homo sapiens) | key= O=S(=O)(NCc1ccc(F)cc1)c1ccc2c(c1)nc(SCCNCc1ccccc1)n2Cc1ccccc1
Response: 6.17

Prompt: // lookup pIC50 | system=Gonadotropin-releasing hormone receptor (Homo sapiens) | key= CCN(C(=O)C(C)(C)c1ccc2[nH]c(-c3cc(C)cc(C)c3)c(CCNCCCCc3ccncc3)c2c1)C1CCCCC1
Response: 8.64

Prompt: // lookup pIC50 | system=Gonadotropin-releasing hormone receptor (Homo sapiens) | key= CCCn1c(SCc2cc([N+](=O)[O-])ccc2OC)nc2cc(NC(=O)NC(C)(C)C)cc(C(=O)NCCN)c21
Response: 6.68

Prompt: // lookup pIC50 | system=Gonadotropin-releasing hormone receptor (Homo sapiens) | key= O=S(=O)(NCc1ccc(F)cc1)c1ccc2c(c1)nc(SCCN1CCOCC1)n2Cc1ccccc1
Response: 6.80

Prompt: // lookup pIC50 | system=Gonadotropin-releasing hormone receptor (Homo sapiens) | key= COc1ccc([N+](=O)[O-])cc1CSc1nc2cc(NC(=O)NC(C)(C)C)ccc2n1Cc1ccccn1
Response: 7.37

Prompt: // lookup pIC50 | system=Gonadotropin-releasing hormone receptor (Homo sapiens) | key= CCC(C)(C(=O)N1C2CCC1CC2)c1ccc2[nH]c(-c3cc(C)cc(C)c3)c(CCNCCCCc3ccncc3)c2c1 (configuration not stated)
Response: 9.00

Prompt: // lookup pIC50 | system=Gonadotropin-releasing hormone receptor (Homo sapiens) | key= COc1ccc(Cl)cc1CSc1nc2cc(NC(=O)C3CC3)ccc2n1C(C)C
Response: 6.80
